test: decrease of insulin promoter-GFP reporter – imaging, high-content screening, mouse beta cells (AID 1628); conditions: MIN6 insulin promoter GFP reporter, at 5 µM, hits give low values
The campaign covered roughly 190,000 compounds. About 930 (0.49%) were called active. Some of the results follow. Measured potencies and affinities stand elsewhere.
property.measured: z-score

For this compound ( Cc1ccc(C(=O)Nc2ccccc2C(=O)NCc2ccco2)cc1S(=O)(=O)N1CCCCC1 ), measured z-score is -3.27 (active)

The compound listed as c1ccc(CN2CCN(c3nc(NCc4ccco4)c4ccccc4n3)CC2)cc1 has a reported z-score of -3.17 (active)

So, Cc1onc(-c2c(Cl)cccc2Cl)c1C(=O)NCc1ccco1 ? Its z-score was -0.41 (inactive)

Record Cc1cc(SCC(=O)N2CCCC2)nc2ccccc12 . Reported z-score: -0.89 (inactive)

z-score reading for CCOc1cccc(-c2nnc3sc(-c4cc(OC)c(OC)c(OC)c4)nn23)c1 : -3.61 (active)

Consider CCOc1cccc(-c2nn3c(-c4cc(C)[nH]n4)nnc3s2)c1 . Its measured z-score is 1.99 (inactive)

z-score reading for O=C(NCc1cccs1)c1ccc(N2CCCCC2)nc1 : 3.41 (inactive)

# compound O=C1C2C3C=CC(C3)C2C(=O)N1CCC(=O)N1CCc2ccccc21 (stereo unspecified) ; its z-score = 0.52 (inactive)

So for Cc1ccccc1NC(=S)N(CCN(C)C)C(C)c1ccccn1 (stereo unspecified) , the logged z-score turned out to be -6.19 (active)

Lookup result for CC(=O)Nc1ccc2nc(NC(=O)COc3cccc(C)c3)sc2c1 ; measured z-score: 1.98 (inactive)

Record COc1cccc(NC2C=CS(=O)(=O)C2)c1 (stereo unspecified) , field z-score: 1.43 (inactive)

====

Would you kindly list z-score for each of these compounds?
assay: decrease of insulin promoter-GFP reporter – imaging, high-content screening, mouse beta cells (AID 1628); conditions: MIN6 insulin promoter GFP reporter, at 5 µM, hits give low values
The campaign covered roughly 190,000 compounds. About 930 (0.49%) were called active. The list shows a part of the results. Results with a measured potency or affinity are listed apart.

compound CC(C)N1CC=C2C(C#N)=C(N)C(C#N)(C#N)C(c3ccccc3)C2C1 (stereo not drawn) , z-score observed: 5.63 (inactive)

For Cc1ccc(NS(=O)(=O)c2ccc(CCC(=O)O)cc2)cc1 the compound record lists z-score as 1.37 (inactive)

Field z-score (entry CCCCn1c(SCc2ncc(-c3ccccc3)o2)nc2cc(S(N)(=O)=O)ccc21 ) reads -5.03 (active)

Entry under test: COc1cc(/C=N/NC(=S)Nc2cccc(Cl)c2C)ccc1OCC(=O)N1CC(C)OC(C)C1 (stereo not drawn) . Its z-score was -3.25 (active)

Record O=C(NNS(=O)(=O)c1ccc(F)cc1F)c1csc(-c2cccnc2)n1 . Reported z-score: -3.45 (active)

Value of z-score reported for the compound O=C1Nc2ccc(NS(=O)(=O)c3cccs3)c3cccc1c23 is 1.61 (inactive)

Per the record, CCN1CCN(c2ncc3c(n2)CC(c2cc(OC)c(OC)c(OC)c2)CC3=O)CC1 (stereo not drawn) has z-score of -3.96 (active)

Sure, the documented z-score for CCN(CC)S(=O)(=O)c1ccc2oc(C(=O)NCc3ccc(F)cc3)c(C)c2c1 is -4.31 (active)

Field z-score (entry CCSc1ccc(C(=O)Nc2ccc(Br)cn2)cc1[N+](=O)[O-] ) reads 1.11 (inactive)

// sample CC(NC(=O)/C(C#N)=C1\N=C(NC(=O)c2cccs2)c2ccccc21)c1ccccc1 (stereo not drawn) , its z-score was 3.96 (inactive)

// COC(=O)c1cc2occc2n1Cc1c(F)cccc1Cl : z-score value = 3.08 (inactive)

According to the records, this compound c1ccc(-c2nnc3sc(CN4CCc5ccccc54)cn23)cc1 displays z-score of -0.03 (inactive)

Value of measured z-score for the entry CC(=O)Cc1cc(O)c2ccccc2c1OC(=O)c1ccc(Br)cc1 : 8.75 (inactive)

Noted for Cc1ccc(S(=O)(=O)Nc2ccc(=O)n(Cc3ccc(Cl)c(Cl)c3)c2)cc1 : its z-score reads 3.26 (inactive)

compound Clc1ccc(CSc2nnc(/C=C/c3ccccc3)o2)cc1 , z-score observed: -4.41 (active)

Measured z-score, COc1cc2cccc(OC)c(=O)c2c(OC)c1OC : 0.56 (inactive)

In plain terms, CCN1CCN(C(=O)C2(NC(=O)Nc3cccc(F)c3)CCCCC2)CC1 has a documented z-score of -4.67 (active)

# compound Cc1noc(C)c1S(=O)(=O)N1CCC(C(=O)N2CCN(C3CCCC3)CC2)CC1 ; its z-score = 3.05 (inactive)

# compound CCCCn1c(O)c(/C=C/C=C/C=Nc2ccccc2)sc1=S ; its z-score = 4.72 (inactive)

Field z-score (entry O=C(CSc1nnc(SCc2ccc(Cl)cc2)s1)N1CCOCC1 ) reads -0.99 (inactive)

Please fill in: z-score reported for CC(Cc1cccs1)NC(=O)Nc1ccccc1 (stereo not drawn) = -4.74 (active)

O=c1cc(-c2ccc(O)cc2)oc2ccccc12 has a reported z-score of -0.5 (inactive)

The compound listed as Cc1cccc(-c2nnc3sc(-c4ccccc4C)nn23)c1 shows z-score equal to -3.32 (active)

====

assay: decrease of insulin promoter-GFP reporter – imaging, high-content screening, mouse beta cells (AID 1628); details: MIN6 insulin promoter GFP reporter, at 5 µM
Out of some 190,000 compounds screened, about 930 (0.49%) were called active.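 Rule for the calls: active = z-score of insulin promoter reporter brightness in nuclei below -3 at 5 µM, with at least 500 cells counted; inconclusive = wells with under 500 cells, flagged as toxic or sparse; inactive = the rest.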 This is one part of the list. Potency and affinity values are given separately.
A correct response names exactly one class from active, inactive

Ask | Query: recorded result category for S=c1[nH]c2ccc(Cl)cc2[nH]1 in this test
Reply | inactive

Ask | # lookup: test call for Cc1ccc2[nH]c3c(N4CCCCCC4)ncnc3c2c1
Reply | active

Ask | What call does the record list for O=Cc1sc(Nc2ccccc2)nc1Cl ?
Reply | inactive

Ask | Each compound tested received a call. Report the one for CCOc1cc2[nH]c(=S)n(CCCN(CC)CC)c(=O)c2cc1OCC .
Reply | inactive

Ask | I'd appreciate the recorded outcome for O=C1C=C(Nc2ccc(O)cc2)CC(c2ccco2)C1 (stereo unspecified) from this test.
Reply | inactive

Ask | Write down the call the test reported for this compound. Item: CCCCN(CC(=O)NCc1ccc(Cl)cc1)S(=O)(=O)c1ccc2c(c1)OCCO2
Reply | active

Ask | I would be grateful if you could indicate the recorded call for Cc1cc(C)c2nc(NNC(=O)c3ccc(S(=O)(=O)N4CCc5ccccc5C4)cc3)sc2c1 .
Reply | active

Ask | Hi, sorry to bother you, what did the test record for O=c1c(Cl)c2oc3ccccc3nc-2c2ccccc12 ?
Reply | inactive

Ask | How did this test come out for Cc1cc(Nc2nn(C)c(N)c2C#N)ccc1F ?
Reply | inactive

Ask | Status in this test for Nc1nc(-c2ccc(Cl)cc2)c(N=Nc2ccc(S(=O)(=O)N3CCOCC3)cc2)s1 ?
Reply | inactive

Ask | Please share the test call associated with c1ccc2c(c1)[nH]c1c(N3CCC4(CC3)OCCO4)ncnc12 .
Reply | active

====

assay: decrease of insulin promoter-GFP reporter – imaging, high-content screening, mouse beta cells (AID 1628); settings: MIN6 insulin promoter GFP reporter, at 5 µM
Out of some 190,000 compounds screened, about 930 (0.49%) were called active.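 The calls were made as follows: active = z-score of insulin promoter reporter brightness in nuclei below -3 at 5 µM, with at least 500 cells counted; inconclusive = wells with under 500 cells, flagged as toxic or sparse; inactive = the rest.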 Some of the results follow. Potency and affinity values are given separately.
Output constraint: value belongs to True for active, False for inactive

Ask | Call for entry COc1cc(OC)c(-c2c3cc(O)c(=O)cc-3oc3cc(O)c(O)cc23)cc1OC :
Reply | False

Ask | Recorded call for COCc1c(C(=O)OCC(=O)c2c(N)n(CC(C)C)c(=O)n(C)c2=O)oc2ccccc12 ?
Reply | True

Ask | Test call for this compound, please: O=C1c2cccc3c(O)ccc(c23)C(=O)N1Cc1ccccc1
Reply | False

Ask | # fetch the recorded call for CC(C)Cn1c(N)c(C(=O)COC(=O)c2ccc3c(c2)OCCO3)c(=O)n(C)c1=O here
Reply | True

Ask | Per the assay record, what outcome was assigned to Cc1ccc(-c2cc(-c3ccco3)c3c(N)c(C(=O)NN)oc3n2)cc1 ?
Reply | False

Ask | Please state the recorded outcome for this compound: CCCCN(CC)CCNC(=O)c1cc2c(C)nc3ccccc3c2o1
Reply | False

Ask | Per the assay record, what outcome was assigned to CCOc1cc([N+](=O)[O-])cc2c1C(=O)Nc1ccccc1O2 ?
Reply | False

Ask | Recorded test outcome, item CCC(CC)COC(=O)C(C#N)c1nc2ccccc2nc1N1CCN(CC)CC1 (centres undefined)
Reply | True

Ask | Field: outcome | Entry: Cc1cccc(NC(=O)COc2cccc3c2CCN(Cc2ccccc2)C3=O)c1C
Reply | True

Ask | Look up the recorded call for CCOc1ccc(NC(=O)C2CCC(C)(C(=O)O)C2(C)C)cc1 (centres undefined) in this test.
Reply | False

Ask | Given CC(C)(C)NC(=S)N/N=C\c1ccc(-c2ccc([N+](=O)[O-])cc2)o1 , state the outcome it received in this test.
Reply | False

Ask | Could you check what this test reported for COc1ccccc1NC(=O)Cn1cc(C(=O)c2ccco2)c2ccccc21 ?
Reply | True

Ask | I'd appreciate the recorded outcome for OC1(c2cn(Cc3ccccc3)nn2)CCCCC1 from this test.
Reply | False

Ask | Record request — test call for N#C/C(=C\c1cc([N+](=O)[O-])c(N2CCCCC2)cc1N1CCCCC1)c1nn(-c2ccccc2)c(N)c1C#N
Reply | True

Ask | Assay outcome for Cc1ccccc1C(=O)NCCCc1ccccc1 : what was it?
Reply | True

Ask | Recorded call for CCOC(=O)c1ccc(NC(=O)C2CC2)cc1 ?
Reply | True

Ask | Recorded test call requested for Cc1ccccc1OCc1n(CC(=O)OC2CC(C)CCC2C(C)C)c2ccccc2[n+]1C (centres undefined)
Reply | True

Ask | I would be grateful if you could indicate the recorded call for CCOC(=O)Cn1c(=O)c(-c2cc(Br)ccc2N)nc2ccccc21 .
Reply | False

Ask | Could you please tell me the result logged for CCc1c(C)nc2ncnn2c1N1CCC(C(=O)NCc2cccc(OC)c2)CC1 in this assay?
Reply | True

Ask | I would be grateful if you could indicate the recorded call for COc1ccccc1NC(=O)/C=C1\SCC(=O)N1C .
Reply | False

Ask | // outcome(item) with item = CCOC(=O)CSc1nc2ccc(Nc3nc(N4CCOCC4)nc(N4CCOCC4)n3)cc2s1
Reply | False

Ask | Outcome logged for O=C(NCCCCc1ccccc1)c1ccc(Br)o1 in this assay:
Reply | False

Ask | Which result was noted for this compound in the test: CCc1c(C)nc2ncnn2c1N1CCC(C(=O)Nc2ccc(C)cc2)CC1
Reply | True

Ask | Each compound tested received a call. Report the one for CCOC(=O)c1c(NC(=O)c2nn(CC)cc2Br)c(C#N)cn1-c1ccccc1 .
Reply | True

Ask | Give the logged outcome of this assay for the following compound: COc1cc(N2CCCC2)c(OC)cc1/C=C(/C#N)c1cccc(F)c1
Reply | False

Ask | Hey, what did the test say about Cc1cc(N2CCC(C(=O)N3CCN(c4cccc(C)c4C)CC3)CC2)n2ncnc2n1 ?
Reply | True

Ask | Please let me know the test result on file for CC1CCCCC1NC(=O)COC(=O)c1c2c(nc3ccccc13)/C(=C/c1ccco1)CC2 (centres undefined) .
Reply | False

Ask | Returns: the outcome recorded for Cc1ccnc(N/C=C(\C#N)c2nc(-c3cccc(Br)c3)cs2)c1 in this assay.
Reply | False

Ask | # fetch the recorded call for CCCN1C(=O)c2cccc3c(N4CCCCC4)ccc(c23)C1=O here
Reply | False

Ask | Can you look up the reported call for CC1=NN(c2ccccc2)C(=O)C1/C=C1\NC(=S)NC1=O (centres undefined) for me?
Reply | False

Ask | Call for entry Cc1ccc(Nc2nc(N3CCOCC3)c3ccccc3n2)cc1 :
Reply | True

Ask | What did the test return for CCN(CC)S(=O)(=O)c1cccc(S(=O)(=O)c2cccc(S(=O)(=O)N(CC)CC)c2)c1 ?
Reply | True

Ask | Fill in: this test's call for Cc1sc2ncnc(NCCCn3ccnc3)c2c1C is ___
Reply | True

Ask | Please share the test call associated with O=C(OCCN1C(=O)c2cccc3c(N4CCOCC4)ccc(c23)C1=O)c1ccc(Cl)cc1Cl .
Reply | False

Ask | Look up the recorded call for CCCCN1C(=O)/C(=C/C=C2/CC(C)(C)CN2C)SC1=S in this test.
Reply | False

Ask | What was the test verdict on Cc1cc(C)nc(N2CCC(C(=O)Nc3ccc4c(c3)OCCO4)CC2)n1 ?
Reply | False

Ask | Could you kindly confirm the outcome this assay logged for C=CCNC(=O)c1c2c(nc3ccccc13)-c1ccccc1CC2 ?
Reply | False

Ask | Query: recorded result category for Cc1cccc(OCC(=O)NNC(=O)Nc2cccc(Cl)c2)c1C in this test
Reply | True

Ask | State the result this test recorded for O=C(N/N=C/c1ccc(O)cc1O)c1ccc(CN2C(=O)c3cccc4cccc2c34)cc1 .
Reply | True

Ask | Test call for this compound, please: Cc1ccc(S(=O)(=O)/N=c2\ccc(Cl)cn2C(F)F)cc1
Reply | False

Ask | Which outcome was assigned to CSC1=NC(C)(C)CC2(C)Nc3ccccc3N12 (centres undefined) in this test?
Reply | True

Ask | # outcome recorded in this test, key = CCCCn1nc(-c2ccccc2)c2nc3ccccc3nc21
Reply | False

Ask | What classification did Cc1ccc(S(=O)(=O)C(C#N)c2nc3ccccc3nc2N2CCC(C)CC2)cc1 (centres undefined) end up with in this test?
Reply | False

Ask | Per the assay record, what outcome was assigned to COc1ccccc1NC(=O)COC(=O)C1CC2C=CC1C2 (centres undefined) ?
Reply | False

// data source = PubChem BioAssay AID1628
